System: K562 cells
Experiment notes: Cell viability assay (CellTiter-Blue), K562
Format: cell-based
Test parameters: Homo sapiens, 48 h incubation, mean±SD, read-out: IC50 against K562 cells
pIC50: −log10 of the molar value.

{"columns": ["Smiles record", "pIC50"],
 "data": [
  ["O=C(Cc1ccc(NC(=O)c2ccccc2O)cn1)NCc1ccccc1", "< 5.00"],
  ["O=C(Cc1ccc(/N=C2\\OC(=O)c3ccccc32)cn1)NCc1ccccc1", "< 5.00"]
]}

* * *

Recorded measurements of pIC50, one per entry
System: MV4-11 cells
Experiment notes: Cell viability assay (CellTiter-Blue), MV4-11
Type: cell-based
Test parameters: Homo sapiens, 48 h incubation, mean±SD, read-out: IC50 against MV4-11 cells
pIC50: −log10 of the molar value.
Observable: pIC50

{"columns": ["Smiles record", "Reported"],
 "data": [
  ["O=C(Cc1ccc(NC(=O)c2ccccc2O)cn1)NCc1ccccc1", "< 5.00"],
  ["O=C(Cc1ccc(/N=C2\\OC(=O)c3ccccc32)cn1)NCc1ccccc1", "< 5.00"]
]}

* * *

Tested on: KG1a cells
Experiment notes: Cell viability assay (CellTiter-Blue), KG1a
Assay type: cell-based
Test parameters: Homo sapiens, KG-1a, 48 h incubation, mean±SD, read-out: IC50 against KG1a cells
Recorded measurements of IC50, one per entry

{"columns": ["Smiles record", "Tested on", "IC50"],
 "data": [
  ["O=C(Cc1ccc(NC(=O)c2ccccc2O)cn1)NCc1ccccc1", "KG1a cells", "> 10 µM"],
  ["O=C(Cc1ccc(/N=C2\\OC(=O)c3ccccc32)cn1)NCc1ccccc1", "KG1a cells", "> 10 µM"]
]}

Values compiled from patent US12285418B1.
